system: THRa:RXRa (NR concentration 90 nM, RXRa partner concentration 90 nM); experiment: PBM binding z-score (relative to random genomic background probes); higher = stronger binding; sequences stand for … in GC…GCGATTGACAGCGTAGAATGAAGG
// values below are reported PBM binding z-score
readout_type: PBM binding z-score

biosequence	obs_value
CGAACTAGGTCAAAGGACCGTGAAAGGCGACGTA	2.23
ATCGAAAGGTCGAAGGTGAGTACACCCACCCGAA	2.54
CGAACTAGGTCACGAGGACAGTGAAGAGGTTGGA	3.84
ATCGAAAAGTCGAAGGTGAGTATACCCACCCGAA	0.0744
GCTGCTAGGTTAACTGATGGTCAGCTAAAGCTCG	0.689
CCGAGTAGGTTACCAGGGGGCATTCAGTGCGAAT	3.68
CCTAGTTGGTCAGGAAGTCACACACCGGATATGA	0.226
CCGAGTCGGTTACGAGGGGGCATTCAGTGCGAAT	2.35
ATGGAAAGGTCGTGAGGTGAGTATACAGAAAGGC	3.82
CAAACCAGGTCACGAAAGGTCAAAGTCGAATGAC	5.23
CGAACTAGGTGAAAGGACAGTGAAAGGCGACGTA	0.672
ATATGTAGGTTAGGGACATTCAGAAAGTAGGGAA	2.32

###

PBM binding z-score values, listed per item
test system: LXRb:RXRa (NR concentration 270 nM, RXRa partner concentration 90 nM); assay: PBM binding z-score (relative to random genomic background probes); higher = stronger binding; sequences stand for … in GC…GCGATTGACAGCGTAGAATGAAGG
readout_type: PBM binding z-score

biosequence	obs_value
TAGCCAAGGTCAGATCGGGCCAGTATACGCTATA	2.55
TTTCCAAGGTGAAAGGTCGTTGATGCACGCCTTG	2.79
TAGCCTCGGTCATTGGGCCAGTATAGTACGCATC	0.0326
TAGCCTAGGTCATTTGGCCAGTATAGTACGCATC	2.71
CGTCAAAGTTCAACTAAGTTAACGTAAAGCACGC	4.33
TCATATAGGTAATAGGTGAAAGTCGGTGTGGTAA	1.18
CGACCTAGGTCAAAGGACAGTGAAAGGCGACGTA	2.32
CCCACTGGGCCATTCAGAGGTCATTGATCATATG	3.72
CCTACTGGGGCAAAGGTCATTGATTCCAATGCTC	4.78
CGAACTAGGTCAATGGACAGTGAAAGGCGACGTA	1.17
CCTACTGGGCCAAAGGTCCTTGATTCCAATGCTC	0.0817
CCTTACGGGTCACTCCATGTTATAGCATCGGAGT	2.66

###

system: PXR:RXRa (NR concentration 270 nM, RXRa partner concentration 90 nM); experiment: PBM binding z-score (relative to random genomic background probes); higher = stronger binding; sequences stand for … in GC…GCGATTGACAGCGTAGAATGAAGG
readout_type: PBM binding z-score

biosequence	obs_value
ATATGTAGGTTACCGGGTCATTCAGTTTGCGCAT	4.35
TCGAGTAGGTTACGGGGGCATGCAGGGATGAAGA	2.75
AGAATGAGGTTAGCAAAGATCAGGGAAACGCTTG	0.442
ATATGTAGCTTAAGGGTCATTCAGGTTGGTTCGC	4.83
TCTTGTAGATCAAAGCTTAAGAAAGCCGAAGCCT	-0.275
CAAAGTAGGTCACGAAAGGTCAAAGTCGAATGAC	7.05
